target: Acetyl-CoA carboxylase 1 (Homo sapiens, UniProt Q13085)
observation-type: pIC50
API: returns pIC50 as number; meaning -log10 of concentration in mol/L.

Lookup: GET /values?readout=pIC50&item= `COc1ccc(-c2ccccc2)cc1NS(=O)(=O)c1cc(Cl)cc(Cl)c1O`
Found: 5.22

* * *

target: Acetyl-CoA carboxylase 2 (Homo sapiens, UniProt O00763)
Sequence (O00763 whole entry): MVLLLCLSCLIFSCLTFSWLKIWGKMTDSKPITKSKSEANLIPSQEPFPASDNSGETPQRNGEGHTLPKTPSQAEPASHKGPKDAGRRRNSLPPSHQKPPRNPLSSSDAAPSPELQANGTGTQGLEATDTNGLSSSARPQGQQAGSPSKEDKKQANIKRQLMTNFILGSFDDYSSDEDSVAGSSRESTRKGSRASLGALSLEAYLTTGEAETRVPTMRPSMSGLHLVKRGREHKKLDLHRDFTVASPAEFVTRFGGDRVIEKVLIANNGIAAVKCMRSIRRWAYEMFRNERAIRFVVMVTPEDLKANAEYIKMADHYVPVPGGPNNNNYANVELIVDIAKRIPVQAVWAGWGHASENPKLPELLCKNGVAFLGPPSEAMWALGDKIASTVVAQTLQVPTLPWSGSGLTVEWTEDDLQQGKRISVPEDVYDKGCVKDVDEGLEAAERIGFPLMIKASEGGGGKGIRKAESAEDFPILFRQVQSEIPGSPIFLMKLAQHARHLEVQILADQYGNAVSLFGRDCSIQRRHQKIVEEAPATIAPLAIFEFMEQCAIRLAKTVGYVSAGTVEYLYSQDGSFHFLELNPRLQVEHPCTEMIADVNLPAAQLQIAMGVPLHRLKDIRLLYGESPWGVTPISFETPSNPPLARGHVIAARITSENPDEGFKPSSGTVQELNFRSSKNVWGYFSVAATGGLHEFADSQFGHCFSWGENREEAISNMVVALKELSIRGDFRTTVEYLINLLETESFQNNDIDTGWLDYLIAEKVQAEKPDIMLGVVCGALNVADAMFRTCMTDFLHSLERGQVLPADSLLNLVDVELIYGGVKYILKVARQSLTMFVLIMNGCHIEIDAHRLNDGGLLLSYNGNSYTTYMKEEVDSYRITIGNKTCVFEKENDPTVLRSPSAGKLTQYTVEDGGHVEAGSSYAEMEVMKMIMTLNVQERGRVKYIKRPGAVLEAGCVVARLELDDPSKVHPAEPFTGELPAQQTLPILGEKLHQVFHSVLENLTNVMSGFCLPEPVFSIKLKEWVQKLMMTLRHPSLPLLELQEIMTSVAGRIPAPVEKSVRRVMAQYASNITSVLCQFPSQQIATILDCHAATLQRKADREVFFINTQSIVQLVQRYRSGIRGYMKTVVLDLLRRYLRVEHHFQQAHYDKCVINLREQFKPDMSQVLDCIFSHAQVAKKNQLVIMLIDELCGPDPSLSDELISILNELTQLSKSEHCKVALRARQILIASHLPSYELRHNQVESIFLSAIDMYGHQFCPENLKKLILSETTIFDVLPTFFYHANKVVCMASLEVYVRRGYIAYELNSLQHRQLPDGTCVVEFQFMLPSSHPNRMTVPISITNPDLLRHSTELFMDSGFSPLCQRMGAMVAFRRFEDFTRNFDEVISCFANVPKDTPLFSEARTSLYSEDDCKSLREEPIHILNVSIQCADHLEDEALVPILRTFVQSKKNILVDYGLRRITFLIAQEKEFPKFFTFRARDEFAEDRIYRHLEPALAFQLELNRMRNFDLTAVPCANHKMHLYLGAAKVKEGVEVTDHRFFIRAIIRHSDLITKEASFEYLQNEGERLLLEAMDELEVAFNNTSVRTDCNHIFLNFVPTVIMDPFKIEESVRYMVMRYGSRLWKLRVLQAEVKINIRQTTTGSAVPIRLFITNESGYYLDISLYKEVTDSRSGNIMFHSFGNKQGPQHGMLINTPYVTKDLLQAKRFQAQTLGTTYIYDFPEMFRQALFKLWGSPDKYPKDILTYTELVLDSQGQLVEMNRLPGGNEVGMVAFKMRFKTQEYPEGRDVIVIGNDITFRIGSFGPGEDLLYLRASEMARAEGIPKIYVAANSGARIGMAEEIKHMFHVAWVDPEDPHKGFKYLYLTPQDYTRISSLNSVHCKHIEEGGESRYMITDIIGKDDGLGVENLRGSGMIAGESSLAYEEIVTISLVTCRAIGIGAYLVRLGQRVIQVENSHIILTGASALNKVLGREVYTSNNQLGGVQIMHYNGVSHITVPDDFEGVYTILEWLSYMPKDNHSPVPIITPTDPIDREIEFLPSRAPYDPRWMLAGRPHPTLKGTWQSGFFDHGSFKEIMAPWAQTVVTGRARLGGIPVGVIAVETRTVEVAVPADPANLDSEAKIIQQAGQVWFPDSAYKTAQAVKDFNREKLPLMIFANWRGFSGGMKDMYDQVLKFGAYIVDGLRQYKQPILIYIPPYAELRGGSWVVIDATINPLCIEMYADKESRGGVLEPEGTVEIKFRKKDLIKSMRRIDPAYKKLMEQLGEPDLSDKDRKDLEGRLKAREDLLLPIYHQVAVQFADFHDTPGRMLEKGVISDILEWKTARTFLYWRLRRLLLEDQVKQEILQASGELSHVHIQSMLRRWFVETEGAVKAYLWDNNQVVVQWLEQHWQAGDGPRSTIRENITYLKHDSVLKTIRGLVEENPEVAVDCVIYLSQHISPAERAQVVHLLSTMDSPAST
observation-type: pIC50
Please report pIC50 as the negative decimal logarithm of the molar concentration, giving only the number.

Lookup: Enter reported pIC50 observed with Acetyl-CoA carboxylase 2 (Homo sapiens, UniProt O00763) for `COc1ccc(-c2ccccc2)cc1NS(=O)(=O)c1cc(Cl)cc(Cl)c1O`
Found: 4.92
